Source of measurements: patent US20250144105A1

IC50 by entry:
Tested System: CDK9/CyclinT1 (Homo sapiens)
Experiment Summary: CDK9/T1 ADPGlo kinase assay for inhibitory activity
Condition Notes: CDK9/CyclinT1 6 nM, PDKtide 40 microM, ATP 10 microM, 120 min at RT, luminescence readout
Description: The testing compound was evaluated in 12 concentrations in a 1:3 dilution series, starting from 5 microM as the highest concentration. […] After incubation time, 5 microL of ADP Glo reagent (ready to use, ADP Glo Kinase assay, Promega GmbH, Germany #V9102) were added, mixed and incubated for 40 min at RT. In the last step, 10 microL of ADP Glo Detection reagent (ready to use, ADP Glo Kinase assay, Promega GmbH, Germany #V9102) were added, mixed and incubated for 30 min at RT. […]

{"columns": ["Compound", "IC50"],
 "data": [
  ["Fc1cccc(F)c1-c1nc(NCCN2CCOCC2)c2ncc(Cl)n2n1", "< 200 nM"],
  ["COCCN[C@H]1CC[C@H](Nc2nc(-c3c(F)cccc3F)nn3c(Cl)cnc23)CC1", "< 20 nM"],
  ["CN1CCCCC1CNc1nc(-c2c(F)cccc2F)nn2c(Cl)cnc12 (centres unmarked)", "< 200 nM"],
  ["N[C@H]1CC[C@H](Nc2nc(-c3c(F)cccc3F)nn3c(Cl)cnc23)CC1", "< 20 nM"],
  ["Fc1cccc(F)c1-c1nc(NCC2CCNCC2)c2ncc(Cl)n2n1", "< 200 nM"]
]}

Identify measured IC50 corresponding to `Fc1cccc(F)c1-c1nc(N[C@H]2CC[C@H](N3CCCC3)CC2)c2ncc(Cl)n2n1`
< 20 nM

Identify measured IC50 corresponding to `OCCN[C@H]1CC[C@H](Nc2nc(-c3c(F)cccc3F)nn3c(Cl)cnc23)CC1`
< 20 nM

Identify measured IC50 corresponding to `FCCCN[C@H]1CC[C@H](Nc2nc(-c3c(F)cccc3F)nn3c(Cl)cnc23)CC1`
< 20 nM

###

IC50 by entry:
Tested System: T1, CDK9/CyclinT1 (Homo sapiens, UniProt P50750)
T1 construct: purchased ProQinase/Reaction Biology, USA 0371-0345-1
T1 sequence (P50750 whole entry): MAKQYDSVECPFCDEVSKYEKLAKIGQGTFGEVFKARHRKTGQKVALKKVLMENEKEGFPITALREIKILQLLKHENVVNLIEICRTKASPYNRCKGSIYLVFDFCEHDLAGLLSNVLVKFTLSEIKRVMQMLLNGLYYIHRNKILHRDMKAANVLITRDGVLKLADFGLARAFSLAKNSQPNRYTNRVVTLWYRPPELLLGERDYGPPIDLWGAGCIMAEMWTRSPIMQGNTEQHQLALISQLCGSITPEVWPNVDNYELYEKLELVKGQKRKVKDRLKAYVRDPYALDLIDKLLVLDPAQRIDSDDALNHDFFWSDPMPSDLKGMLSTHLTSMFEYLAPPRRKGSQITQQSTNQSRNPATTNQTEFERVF
T1 sequence (O60563 whole entry partner): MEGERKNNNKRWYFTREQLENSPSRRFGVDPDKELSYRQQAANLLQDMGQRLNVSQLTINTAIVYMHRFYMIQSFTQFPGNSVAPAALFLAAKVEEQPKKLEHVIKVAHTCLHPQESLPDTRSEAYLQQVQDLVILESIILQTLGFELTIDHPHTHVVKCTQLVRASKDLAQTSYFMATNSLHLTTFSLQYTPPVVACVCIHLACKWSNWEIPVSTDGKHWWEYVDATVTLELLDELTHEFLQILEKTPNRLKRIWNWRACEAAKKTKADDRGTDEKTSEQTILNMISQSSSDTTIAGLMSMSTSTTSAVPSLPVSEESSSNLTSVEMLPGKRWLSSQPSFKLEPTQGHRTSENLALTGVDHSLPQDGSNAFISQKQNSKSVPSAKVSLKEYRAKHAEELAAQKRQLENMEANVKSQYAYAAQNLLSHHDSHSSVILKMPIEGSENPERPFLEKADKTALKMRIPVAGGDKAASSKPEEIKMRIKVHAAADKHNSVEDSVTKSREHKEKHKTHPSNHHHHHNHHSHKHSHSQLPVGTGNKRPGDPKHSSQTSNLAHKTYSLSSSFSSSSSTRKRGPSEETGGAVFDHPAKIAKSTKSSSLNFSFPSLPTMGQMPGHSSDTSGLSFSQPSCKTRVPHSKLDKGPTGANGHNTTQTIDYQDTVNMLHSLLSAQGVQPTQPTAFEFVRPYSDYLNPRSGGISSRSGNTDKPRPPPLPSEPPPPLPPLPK
Experiment Summary: CDK9/T1 ADPGlo kinase assay for inhibitory activity
Format: biochemical
Condition Notes: CDK9/CyclinT1 6 nM, PDKtide 40 microM, ATP 10 microM, 120 min at RT, luminescence readout

{"columns": ["Molecule", "IC50"],
 "data": [
  ["Fc1cccc(F)c1-c1nc(NC2CCN(C3CCOCC3)CC2)c2ncc(Cl)n2n1", "< 0.2 µM"],
  ["CN(C)[C@H]1CC[C@H](Nc2nc(-c3c(F)cccc3F)nn3c(Cl)cnc23)CC1", "< 0.02 µM"],
  ["Fc1cccc(F)c1-c1nc(NCc2cccnc2)c2ncc(Cl)n2n1", "< 0.2 µM"],
  ["CN1CCN([C@H]2CC[C@H](Nc3nc(-c4c(F)cccc4F)nn4c(Cl)cnc34)CC2)CC1", "< 0.02 µM"],
  ["CC(C)N1CCC(Nc2nc(-c3c(F)cccc3F)nn3c(Cl)cnc23)CC1", "< 0.2 µM"],
  ["Fc1cccc(F)c1-c1nc(NC2CN3CCC2CC3)c2ncc(Cl)n2n1 (centres unmarked)", "< 0.2 µM"]
]}

Please indicate recorded IC50 of `Fc1cccc(Cl)c1-c1nc(N[C@H]2CC[C@H](N3CCOCC3)CC2)c2ncc(Cl)n2n1` measured with T1, CDK9/CyclinT1 (Homo sapiens, UniProt P50750).
< 0.02 µM

Please indicate recorded IC50 of `Clc1cccc(Cl)c1-c1nc(N[C@H]2CC[C@H](N3CCOCC3)CC2)c2ncc(Cl)n2n1` measured with T1, CDK9/CyclinT1 (Homo sapiens, UniProt P50750).
< 0.02 µM

Please indicate recorded IC50 of `Cc1cc(C)c(CNc2nc(-c3c(F)cccc3F)nn3c(Cl)cnc23)cn1` measured with T1, CDK9/CyclinT1 (Homo sapiens, UniProt P50750).
< 0.2 µM

Please indicate recorded IC50 of `Fc1cccc(F)c1-c1nc(NC2CCN(C3CCCC3)CC2)c2ncc(Cl)n2n1` measured with T1, CDK9/CyclinT1 (Homo sapiens, UniProt P50750).
< 0.2 µM

Please indicate recorded IC50 of `Fc1cccc(F)c1-c1nc(N[C@H]2CC[C@H](N3CCOCC3)CC2)c2ncc(Cl)n2n1` measured with T1, CDK9/CyclinT1 (Homo sapiens, UniProt P50750).
< 0.02 µM

Please indicate recorded IC50 of `Fc1cccc(F)c1-c1nc(NC2CCNCC2)c2ncc(Cl)n2n1` measured with T1, CDK9/CyclinT1 (Homo sapiens, UniProt P50750).
< 0.02 µM

Please indicate recorded IC50 of `Fc1cccc(F)c1-c1nc(N[C@H]2CC[C@H](N3CCCCC3)CC2)c2ncc(Cl)n2n1` measured with T1, CDK9/CyclinT1 (Homo sapiens, UniProt P50750).
< 0.02 µM

Please indicate recorded IC50 of Fc1cccc(F)c1-c1nc(NCC2CCCNC2)c2ncc(Cl)n2n1 (centres unmarked) measured with T1, CDK9/CyclinT1 (Homo sapiens, UniProt P50750).
< 0.2 µM

Please indicate recorded IC50 of `CN1CCC(Nc2nc(-c3c(F)cccc3F)nn3c(Cl)cnc23)CC1` measured with T1, CDK9/CyclinT1 (Homo sapiens, UniProt P50750).
< 0.02 µM

Please indicate recorded IC50 of NC1CCC(Nc2nc(-c3c(F)cccc3F)nn3c(Cl)cnc23)C1 (centres unmarked) measured with T1, CDK9/CyclinT1 (Homo sapiens, UniProt P50750).
< 0.02 µM

Please indicate recorded IC50 of `FCCN[C@H]1CC[C@H](Nc2nc(-c3c(F)cccc3F)nn3c(Cl)cnc23)CC1` measured with T1, CDK9/CyclinT1 (Homo sapiens, UniProt P50750).
< 0.02 µM

###

Tested System: T1, CDK9/CyclinT1 (Homo sapiens, UniProt P50750)
T1 construct: purchased ProQinase/Reaction Biology, USA 0371-0345-1
Experiment Summary: CDK9/T1 ADPGlo kinase assay for inhibitory activity
Type: biochemical
Condition Notes: CDK9/CyclinT1 6 nM, PDKtide 40 microM, ATP 10 microM, 120 min at RT, luminescence readout
Value Kind: IC50

{"columns": ["Compound", "Measured"],
 "data": [
  ["CCN1CCCC1CNc1nc(-c2c(F)cccc2F)nn2c(Cl)cnc12 (stereo not drawn) [Example #15]", "< 200 nM"],
  ["CC(C)(C)OC(=O)N1CCCC(CNc2nc(-c3c(F)cccc3F)nn3c(Cl)cnc23)C1 (stereo not drawn) [Example #20]", "< 200 nM"]
]}

Identify measured IC50 corresponding to CN1CCC(CNc2nc(-c3c(F)cccc3F)nn3c(Cl)cnc23)CC1 [Example #17]
< 20 nM
